Tested on: A549
Test Summary: Antiproliferative activity against human A549 cells measured after 24 hrs by MTT assay
Assay type: functional, cell-based
Condition Description: A549, 24 h
pIC50: −log10 of the molar value.
Assay Metric: pIC50

{"Molecule": "COc1ccc(CNc2nc(N3CCC[C@H]3CO)ncc2C(=O)NCc2ncccn2)cc1Cl [AVANAFIL]", "pIC50": 3.90}

[A] CCCOc1ccc(S(=O)(=O)NCCC2CCCN2C)cc1-c1nc2c(CCC)nn(C)c2c(=O)[nH]1 (stereo not drawn) [UDENAFIL]
[B] CN1CC(=O)N2[C@H](c3ccc4c(c3)OCO4)c3[nH]c4ccccc4c3C[C@@H]2C1=O [TADALAFIL]
## Input Select the item whose pIC50 value is smaller, choosing between A and B . Answer with the label corresponding to your selection.
## Output B
(B: 3.45, A: 3.82)

----------
Test system: NCI-H661
Test Summary: Antiproliferative activity against human NCI-H661 cells measured after 24 hrs by MTT assay
Type: functional, cell-based
Condition Description: NCI-H661, 24 h
Assay Metric: IC50 (µM)

[I] CCCOc1ccc(S(=O)(=O)NCCC2CCCN2C)cc1-c1nc2c(CCC)nn(C)c2c(=O)[nH]1 (stereo not drawn)
[II] CN1CC(=O)N2[C@H](c3ccc4c(c3)OCO4)c3[nH]c4ccccc4c3C[C@@H]2C1=O
[III] COc1ccc(CNc2nc(N3CCC[C@H]3CO)ncc2C(=O)NCc2ncccn2)cc1Cl
## Input Output the listed items in decreasing order of IC50. # list labels per requested ordering
## Output II, III, I

----------
Test system: NCI-H1299
Test Summary: Antiproliferative activity against human NCI-H1299 cells measured after 48 hrs by MTT assay
Type: functional, cell-based
Condition Description: NCI-H1299, 48 h
pIC50: −log10 of the molar value.
Assay Metric: pIC50

{"Compound": "O=C(c1ccc(OCCN2CCCCC2)cc1)c1c(-c2ccc(O)cc2)sc2cc(O)ccc12", "Measured Target": "NCI-H1299", "Assay Metric": "pIC50", "Value Reported": 4.35}
{"Compound": "COc1ccc(CNc2nc(N3CCC[C@H]3CO)ncc2C(=O)NCc2ncccn2)cc1Cl", "Measured Target": "NCI-H1299", "Assay Metric": "pIC50", "Value Reported": 3.73}

[P] CCCOc1ccc(S(=O)(=O)NCCC2CCCN2C)cc1-c1nc2c(CCC)nn(C)c2c(=O)[nH]1 (stereo not given)
[Q] CN1CC(=O)N2[C@H](c3ccc4c(c3)OCO4)c3[nH]c4ccccc4c3C[C@@H]2C1=O
## Input Would you let me know which has the greater pIC50 value, P or Q ? Answer with the label corresponding to your selection.
## Output P
(P: 4.06, Q: 3.56)

----------
System: A549
Test Summary: Antiproliferative activity against human A549 cells measured after 72 hrs by MTT assay
Assay type: functional, cell-based
Condition Description: A549, 72 h
Assay Metric: IC50 (µM)

[P] CN1CC(=O)N2[C@H](c3ccc4c(c3)OCO4)c3[nH]c4ccccc4c3C[C@@H]2C1=O
[Q] COc1ccc(CNc2nc(N3CCC[C@H]3CO)ncc2C(=O)NCc2ncccn2)cc1Cl
## Input Would you let me know which has the greater IC50 value, P or Q ? Answer with the label corresponding to your selection.
## Output Q
